test system: EKVX; assay: NCI tumour cell line growth inhibition, 48 h
The source made the active and inactive calls. Cut-off read from the data, not from the text of the source: active = GI50 up to about 1.1 µM and inactive = higher.
Task for the reader: assign each of the following compounds its reported GI50.

// query Which GI50 value is on record for CCc1cccc(C)c1NC(=O)CCc1nnc(S)[nH]1 ?
// result > 100 µM (inactive)

// query Which GI50 value is on record for COc1cc2c(cc1OC)-c1cc3cc(OC)c(OC)cc3c(C)[n+]1CC2.O=C([O-])CS(=O)(=O)O ?
// result > 100 µM (inactive)

// query Which GI50 value is on record for C=C1C(=O)O[C@H]2C/C(C)=C/CC[C@@]3(C)O[C@](C)(CC[C@@H]3I)[C@@H](I)C[C@@H]12 ?
// result 7.16 µM (inactive)

// query Which GI50 value is on record for CCN(CCCl)CCNc1c2ccccc2nc2ccc(OC)cc12 ?
// result 1.27 µM (inactive)

// query Which GI50 value is on record for CCOC(OCC)[C@@H]1C[C@@H]2N(O[C@H](OC3CCCC3(c3ccccc3)c3ccccc3)[C@H](OC(C)=O)[C@@]2(CC)Cc2ccc(OC)c(OC)c2)O1 (some centres undefined) ?
// result > 100 µM (inactive)

// query Which GI50 value is on record for CC1OC(n2ccc(=O)[nH]c2=O)C=C(OC(=O)c2ccccc2)C1=O (centres undefined) ?
// result > 100 µM (inactive)

// query Which GI50 value is on record for O=[N+]([O-])C(C=C(n1nnc2ccccc21)n1nnc2ccccc21)=C(n1nnc2ccccc21)n1nnc2ccccc21 ?
// result > 100 µM (inactive)

// query Which GI50 value is on record for COc1nc2nccnc2c(=O)n1C ?
// result > 10 µM (inactive)

// query Which GI50 value is on record for CN(C)CCN(C)P12(Oc3ccccc3O1)Oc1c(Cl)c(Cl)c(Cl)c(Cl)c1O2 ?
// result 99.8 µM (inactive)
